For each entry below, report its GI50 value.
assay: Anticancer activity against renal cancer cells; format: functional; details: Homo sapiens, Cancer cell lines
Answers are plain numbers, in µM.

[
  {
    "smiles.text": "O=C(c1ccco1)c1c(C(F)(F)F)nc2cc(C(F)(F)F)ccc2[n+]1[O-]",
    "GI50 / µM": 34.6
  }
]

Each molecule below has a reported value. Please supply its GI50.
1. O=C(c1cccs1)c1c(C(F)(F)F)[n+]([O-])c2ccccc2[n+]1[O-]
2. O=C(c1ccco1)c1c(C(F)(F)F)[n+]([O-])c2cc(C(F)(F)F)ccc2[n+]1[O-]
3. O=C(c1ccco1)c1nc2ccc(C(F)(F)F)cc2[n+]([O-])c1C(F)(F)F
4. O=C(c1cccs1)c1c(C(F)(F)F)[n+]([O-])c2cc(C(F)(F)F)ccc2[n+]1[O-]

1: 0.48; 2: 0.49; 3: 49.7; 4: 0.24

Each molecule below has a reported value. Please supply its GI50.
1. O=C(c1ccco1)c1nc2cc(C(F)(F)F)ccc2nc1C(F)(F)F
2. O=C(c1ccc2ccccc2c1)c1c(C(F)(F)F)[n+]([O-])c2ccc(C(F)(F)F)cc2[n+]1[O-]
3. O=C(c1ccco1)c1c(C(F)(F)F)[n+]([O-])c2ccc(F)cc2[n+]1[O-]
4. O=C(c1ccco1)c1c(C(F)(F)F)[n+]([O-])c2ccc(Cl)cc2[n+]1[O-]
5. O=C(c1cccs1)c1c(C(F)(F)F)[n+]([O-])c2ccc(C(F)(F)F)cc2[n+]1[O-]

1: 100; 2: 0.58; 3: 2.41; 4: 0.2; 5: 0.31

---

experiment: Anticancer activity against prostate cancer cells; assay type: functional; conditions: Homo sapiens, Cancer cell lines
GI50 less than 2000 nM is fulfilled; GI50 greater than or equal to 2000 nM is not fulfilled.

The examples below pair each entry with its known result.
[
  {
    "smiles.text": "O=C(c1ccco1)c1c(C(F)(F)F)nc2ccc(C(F)(F)F)cc2[n+]1[O-]",
    "class": "not fulfilled"
  },
  {
    "smiles.text": "O=C(c1ccco1)c1c(C(F)(F)F)[n+]([O-])c2cc(Cl)c(Cl)cc2[n+]1[O-]",
    "class": "fulfilled"
  },
  {
    "smiles.text": "O=C(c1ccco1)c1c(C(F)(F)F)[n+]([O-])c2ccc(C(F)(F)F)cc2[n+]1[O-]",
    "class": "fulfilled"
  },
  {
    "smiles.text": "O=C(c1ccccc1)c1c(C(F)(F)F)[n+]([O-])c2ccc(C(F)(F)F)cc2[n+]1[O-]",
    "class": "fulfilled"
  },
  {
    "smiles.text": "O=C(c1ccccc1)c1c(C(F)(F)F)[n+]([O-])c2ccc(F)cc2[n+]1[O-]",
    "class": "fulfilled"
  }
]

Check if GI50 falls below 2000 nM for O=C(c1ccco1)c1c(C(F)(F)F)[n+]([O-])c2ccc(Cl)cc2[n+]1[O-] . fulfilled

Check if GI50 falls below 2000 nM for O=C(c1cccs1)c1c(C(F)(F)F)[n+]([O-])c2cc(F)c(F)cc2[n+]1[O-] . fulfilled

Check if GI50 falls below 2000 nM for COc1ccc2c(c1)[n+]([O-])c(C(=O)c1cccs1)c(C(F)(F)F)[n+]2[O-] . not fulfilled

Check if GI50 falls below 2000 nM for O=C(c1ccco1)c1nc2ccc(C(F)(F)F)cc2[n+]([O-])c1C(F)(F)F . not fulfilled

Check if GI50 falls below 2000 nM for O=C(c1ccco1)c1c(C(F)(F)F)[n+]([O-])c2ccc(F)cc2[n+]1[O-] . not fulfilled
